System: MCF7
assay-procedure: NCI tumour cell line growth inhibition, 48 h
Calls of active or inactive are those of the source. Cut-off read from the data, not from the text of the source: active = GI50 up to about 1.1 µM and inactive = higher.
Reply using exactly one outcome from yes (1) (active), no (0) (inactive)

Past entries and their recorded results:
compound	category
c1ccc([P+](CCNCCNCC[P+](c2ccccc2)(c2ccccc2)c2ccccc2)(c2ccccc2)c2ccccc2)cc1	no (0)
COc1ccc(/C=C\c2cc(OC)c(OC)c(OC)c2)cc1OC(=O)CCC(=O)O	yes (1)
C=CCOC(=O)C1C2OC3(C(C(=O)OC)=C2C(=O)OC)c2ccccc2CCC13 (centres undefined)	no (0)

**Q:** Identify the outcome logged in this assay for the compound shown: COC(=O)/C=C1/OC(c2ccc(C)cc2)=C(Cl)C1=O
**A:** no (0)
